Origin of measurements: patent US5061794A

Tested on: K. oxytoca GN10650
TEST DESCRIPTION: in vitro antibacterial activity, agar plate dilution method (MIC)
Assay type: cell-based
EXPERIMENTAL CONTEXT: Klebsiella oxytoca, GN10650, 16 h, read-out: Minimum Inhibitory Concentration (MIC), *K. oxytoca GN10650, lactamase-producing strain; 10^6 CFU/ml
Protocol: The in vitro antibacterial activities of the compounds of the present invention against various microorganisms, were measured by the following agar plate dilution method. One platinum loopfull of each test microorganism incubated overnight in Mueller Hinton broth, was inoculated to Mueller Hinton agar (inoculum size: 10^6 CFU/ml). […] After incubation at 37° C. for 16 hours, the minimum inhibitory concentrations (MIC: μg/ml) were measured.
METRIC NAME: MIC (µg/mL)
Give bare numbers, in µg/mL.

Record excerpt, results attached:
# COMPOUND, MIC, µg/mL
data = [
    ("CO/N=C(\\C(=O)N[C@@H]1C(=O)N2C(C(=O)O)=C(CSc3nnc(-c4ccc(OC(C)=O)c(OC(C)=O)c4)o3)CS[C@H]12)c1csc(N)n1 [Ex. 4]", 0.39),
    ("CC(C)(O/N=C(\\C(=O)N[C@@H]1C(=O)N2C(C(=O)O)=C(CSc3ncc(-c4ccc(O)cc4)o3)CS[C@H]12)c1csc(N)n1)C(=O)O [compound 24, reference compound]", 6.25),
    ("C#CCO/N=C(\\C(=O)N[C@@H]1C(=O)N2C(C(=O)O)=C(CSc3nnc(-c4ccc(O)c(O)c4)o3)CS[C@H]12)c1csc(N)n1 [compound 9]", 6.25),
    ("Nc1nc(C(=NOC2CCCC2)C(=O)NC2C(=O)N3C(C(=O)O)=C(CSc4nc(C(=O)O)c(-c5ccc(O)c(O)c5)s4)CSC23)cs1 (stereo not drawn) [Ex. 54]", 1.56),
    ("CC(C)(ON=C(C(=O)NC1C(=O)N2C(C(=O)O)=C(CSc3nc(-c4ccc(O)c(O)c4)c(CC(=O)O)s3)CSC12)c1csc(N)n1)C(=O)O (stereo not drawn) [Example 59 (I)]", 0.1),
]

Switching to the query record.
The value of MIC measured for the compound Nc1nc(/C(=N/OC2(C(=O)O)CC2)C(=O)N[C@@H]2C(=O)N3C(C(=O)O)=C(CSc4nnc(-c5ccc(O)c(O)c5)o4)CS[C@H]23)cs1 [Ex. 12] turned out to be 0.025

###

Give MIC for every item shown.
Test system: S. marcescens No. 16-2
TEST DESCRIPTION: in vitro antibacterial activity, agar plate dilution method (MIC)
Type: cell-based
EXPERIMENTAL CONTEXT: Serratia marcescens, NO.162, 16 h, read-out: Minimum Inhibitory Concentration (MIC), *S. marcescens No. 16-2, lactamase-producing strain; 10^6 CFU/ml
Numbers only, in µg/mL.

The examples below pair each entry with its known result.
# MOLECULE, METRIC NAME, RESULT UNITS, QUANTITATIVE READOUT
rows = [
    ("CON=C(C(=O)NC1C(=O)N2C(C(=O)O)=C(CSc3nc(-c4ccc(OC(C)=O)c(OC(C)=O)c4)cs3)CSC12)c1csc(N)n1 (stereo not drawn)", "MIC", "µg/mL", 6.25),
    ("CCON=C(C(=O)NC1C(=O)N2C(C(=O)O)=C(CSc3nc(C(=O)O)c(-c4ccc(O)c(O)c4)s3)CSC12)c1csc(N)n1 (stereo not drawn)", "MIC", "µg/mL", 6.25),
    ("Nc1nc(C(=NOC2CCCC2)C(=O)NC2C(=O)N3C(C(=O)O)=C(CSc4nc(C(=O)O)c(-c5ccc(O)c(O)c5)s4)CSC23)cs1 (stereo not drawn)", "MIC", "µg/mL", 1.56),
    ("CO/N=C(\\C(=O)N[C@@H]1C(=O)N2C(C(=O)O)=C(CSc3nnc(-c4ccc(O)c(O)c4)o3)CS[C@H]12)c1csc(N)n1", "MIC", "µg/mL", 0.78),
]

For each entry beneath this line, provide reported MIC.
1. CCO/N=C(\C(=O)N[C@@H]1C(=O)N2C(C(=O)O)=C(CSc3ncc(-c4ccc(OC(C)=O)c(OC(C)=O)c4)o3)CS[C@H]12)c1csc(N)n1
2. CON=C(C(=O)NC1C(=O)N2C(C(=O)O)=C(CSc3ncc(-c4ccc(O)c(O)c4)o3)CSC12)c1csc(N)n1 (stereo not drawn)

Found:
1: 6.25; 2: 6.25
